Measured CC50 at 24 h accompanies every entry in the list below.
assay: Cytotoxicity against mouse 158N cells assessed as cell viability after 24 hrs by trypan blue-based cell counting method; conditions: read-out: LD50
Respond with the bare value in µM.

In the examples that follow, each entry is paired with its recorded CC50 at 24 h.
CC(C)CCC[C@@H](C)[C@H]1CC[C@H]2[C@@H]3[C@H](O)C=C4C[C@@H](O)CC[C@]4(C)[C@H]3CC[C@]12C :: 60
CC(C)CCC[C@@H](C)[C@H]1CC[C@H]2[C@@H]3[C@@H](O)C=C4C[C@@H](O)CC[C@]4(C)[C@H]3CC[C@]12C :: 15

Task: So what's the measured CC50 at 24 h for this one? CC(C)CCC[C@@H](C)[C@H]1CC[C@H]2[C@@H]3C(=O)C=C4C[C@@H](O)CC[C@]4(C)[C@H]3CC[C@]12C [7-OXOCHOLESTEROL]
Result: 30

----------
Measured CC50 at 24 h accompanies every entry in the list below.
test: Cytostatic activity against mouse 158N cells assessed as cell viability after 24 hrs by trypan blue-based cell counting method; conditions: read-out: LD50

CC(C)CCC[C@@H](C)[C@H]1CC[C@H]2[C@@H]3CC=C4[C@H](O)[C@@H](O)CC[C@]4(C)[C@H]3CC[C@]12C :: > 160 µM

Task: So what's the measured CC50 at 24 h for this one? CC(C)CCC[C@@H](C)[C@H]1CC[C@H]2[C@@H]3CC=C4[C@@H](O)[C@@H](O)CC[C@]4(C)[C@H]3CC[C@]12C
Result: > 160 µM

----------
experiment: Growth inhibition of BALB/cJRj mouse astrocytes/oligodendrocytes at 50 uM after 24 hrs by trypan blue-based cell counting method
testReadout: Activity

In the examples that follow, each entry is paired with its recorded Activity.
CC(C)CCC[C@@H](C)[C@H]1CC[C@H]2[C@@H]3CC=C4[C@H](O)[C@@H](O)CC[C@]4(C)[C@H]3CC[C@]12C :: Non-toxic
CC(C)CCC[C@@H](C)[C@H]1CC[C@H]2[C@@H]3[C@H](O)C=C4C[C@@H](O)CC[C@]4(C)[C@H]3CC[C@]12C :: Non-toxic
CC(C)CCC[C@@H](C)[C@H]1CC[C@H]2[C@@H]3C(=O)C=C4C[C@@H](O)CC[C@]4(C)[C@H]3CC[C@]12C [7-OXOCHOLESTEROL] :: Toxic
CC(C)CCC[C@@H](C)[C@H]1CC[C@H]2[C@@H]3CC=C4[C@@H](O)[C@@H](O)CC[C@]4(C)[C@H]3CC[C@]12C :: Non-toxic

Task: So what's the measured Activity for this one? CC(C)CCC[C@@H](C)[C@H]1CC[C@H]2[C@@H]3[C@@H](O)C=C4C[C@@H](O)CC[C@]4(C)[C@H]3CC[C@]12C
Result: Toxic
